The following molecules have recorded IC50 on Pim-2 (Homo sapiens (Human)).
Sequence (Q9P1W9 whole entry): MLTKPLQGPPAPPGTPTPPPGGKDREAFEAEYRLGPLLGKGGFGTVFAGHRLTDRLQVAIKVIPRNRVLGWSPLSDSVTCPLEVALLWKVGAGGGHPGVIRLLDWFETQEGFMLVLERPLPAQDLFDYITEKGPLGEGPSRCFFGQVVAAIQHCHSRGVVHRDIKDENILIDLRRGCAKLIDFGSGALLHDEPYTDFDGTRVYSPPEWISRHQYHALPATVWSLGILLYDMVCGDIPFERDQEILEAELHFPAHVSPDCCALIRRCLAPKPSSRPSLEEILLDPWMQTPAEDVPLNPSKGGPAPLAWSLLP

Example entries begin here.
[
  {
    "MOLECULE": "C[C@@H]1C[C@H](N)CN(c2ccncc2NC(=O)c2c(N)oc3cc(F)cnc23)C1",
    "IC50": "10 to 100 nM"
  },
  {
    "MOLECULE": "COc1ccnc2c(C(=O)Nc3cnn(C)c3N3CCCC(N)CC3)c(N)sc12 (stereo not shown)",
    "IC50": "≤ 10 nM"
  },
  {
    "MOLECULE": "Cn1ncc(NC(=O)c2c(N)oc3cc(C4CCOCC4)cnc23)c1N1C[C@@H](N)C[C@@H](C(F)(F)F)C1",
    "IC50": "10 to 100 nM"
  }
]

Form field - read-out: IC50; system: Pim-2 (Homo sapiens (Human)); submitted item: "COCCCc1cnc2c(C(=O)Nc3cnccc3N3C[C@H](C)C[C@H](N)C3)c(N)oc2c1"
≤ 10 nM

Provenance of the data: patent US10000507B2
